Test system: NCI-H460 lung
Test: NCI-60 one-dose screen, 48 h (100 = growth as untreated, 0 = no growth, -100 = all killed)
Details: 10 µM
Compounds without any hit were thinned out: in the full panel of roughly 83,000, 20% have a hit. Activity calls are given as the source filed them. Rule for the calls: active = growth percent below 10; inactive = the rest.
Each item that follows carries a reported growth.

Recorded growth, per entry:
INPUT: Looking for the measured growth of COc1ccc(-c2nc3sc(-c4ccc(OC)cc4)c(-c4ccc(OC)cc4)n3c2/C=C/c2ccc(C(C)C)cc2)cc1 , can you help?
OUTPUT: 101% (inactive)

INPUT: Looking for the measured growth of C#Cc1ccc(-n2c(/C=C/c3ccc(Cl)c(F)c3)nc3ncccc3c2=O)cc1 , can you help?
OUTPUT: -25.8% (active)

INPUT: Looking for the measured growth of COc1cccc(-c2cc(-c3cccc(NS(C)(=O)=O)c3)nc(N)c2C#N)c1O , can you help?
OUTPUT: 8.75% (active)

INPUT: Looking for the measured growth of Cc1ccc(C)c(C(O)(c2cc(C)ccc2C)C2(O)CCCCC2)c1 , can you help?
OUTPUT: 95.7% (inactive)

Pending compound:
INPUT: Looking for the measured growth of COc1cc(C(=O)/C=C/c2cc(-c3cc(OC)c(OC)c(OC)c3)n[nH]2)cc(OC)c1OC , can you help?
OUTPUT: 29.7% (inactive)

---

Each item that follows carries a reported growth.
Tested on: HCC-2998 colon
Test: NCI-60 one-dose screen, 48 h (100 = growth as untreated, 0 = no growth, -100 = all killed)
Conditions: 10 µM
Compounds without any hit were thinned out: in the full panel of roughly 83,000, 20% have a hit.
The reply should be a number in %, with the unit left off.

INPUT: Looking for the measured growth of O=C(Nc1ccc(CO)cc1)c1ccccc1Nc1ccnc(C(F)(F)F)c1 , can you help?
OUTPUT: 106

INPUT: Looking for the measured growth of COc1cc(Cl)cc(-c2nn(-c3cccc(NC(=O)Nc4ccc(Cl)c(Cl)c4)c3)cc2-c2ccncc2)c1 , can you help?
OUTPUT: 26.7

INPUT: Looking for the measured growth of COC(=O)C1=NNC(=S)N(c2cc(C)[nH]n2)C(=O)C1 , can you help?
OUTPUT: 93.6

INPUT: Looking for the measured growth of CNc1ccc(CSc2ccc(C)cc2)cc1 , can you help?
OUTPUT: 94

INPUT: Looking for the measured growth of Cc1nc2c(c(=O)[nH]1)OCN(Cc1ccccc1)C2 , can you help?
OUTPUT: 104

Pending molecule:
INPUT: Looking for the measured growth of Cc1ccc2oc3nc(C)c(C(=O)NCc4ccccc4)cc3c(=O)c2c1 , can you help?
OUTPUT: 35.4

---

Test system: LOX IMVI melanoma
Experiment: NCI-60 one-dose screen, 48 h
Settings: 10 µM
This is part of a sample that, as a whole, favours compounds with a hit. Of some 83,000 tested, about 20% had one in any assay. Active and inactive are the calls of the source. The calls were made as follows: active = growth percent below 10; inactive = the rest.
Could you please pick one outcome from this set? active, inactive

// known answers, use as guide
INPUT: # fetch the recorded call for CN(CCc1ccccn1)c1ccccc1 here
OUTPUT: inactive

INPUT: # fetch the recorded call for O=C(CC(NC(=O)OCc1ccccc1)C(=O)OCc1ccccc1)OCc1ccccc1 (stereo not given) here
OUTPUT: inactive

INPUT: # fetch the recorded call for Cc1ccc(S(=O)(=O)OCCN(CCOS(=O)(=O)c2ccc(C)cc2)c2c[nH]c(=O)[nH]c2=O)cc1 here
OUTPUT: inactive

INPUT: # fetch the recorded call for COc1ccc(-n2c(SCc3cc(OC)c(OC)c(OC)c3)nc3ccc(C)cc3c2=O)cc1 here
OUTPUT: inactive

Consider now this further compound.
INPUT: # fetch the recorded call for COc1ccccc1CNCCN1C(=O)c2ccc3c4c(ccc(c24)C1=O)C(=O)N(CCNCc1ccccc1OC)C3=O here
OUTPUT: active
